- System: PC-3
- assayProtocol: Antiproliferative activity against human PC3 cells assessed as reduction in cell viability after 24 hrs by MTT assay
- Assay type: functional, cell-based
- conditionNotes: PC-3, 24 h
property: IC50

Tell me the measured IC50 of `C[C@H]1[C@@H](OCc2cn(-c3ccc([N+](=O)[O-])cc3)nn2)O[C@@H]2O[C@@]3(C)CC[C@H]4[C@H](C)CC[C@@H]1[C@@]24OO3` , please.
4.06 to 89.9 µM

Recorded IC50 for `C[C@H]1[C@@H](O)O[C@@H]2O[C@@]3(C)CC[C@H]4[C@H](C)CC[C@@H]1[C@@]24OO3` , please?
42.4 to 52.6 µM

Which value of IC50 has been reported for `C[C@H]1[C@@H](OCc2cn(-c3ccc(C#N)cc3)nn2)O[C@@H]2O[C@@]3(C)CC[C@H]4[C@H](C)CC[C@@H]1[C@@]24OO3` in the records?
4.06 to 89.9 µM

----------
- System: A549
- assayProtocol: Antiproliferative activity against human A549 cells
- Format: functional, cell-based
property: IC50

Record request: IC50 value, item `CCCCCCc1ccc(-c2cn(Cc3cc(=O)oc4cc(O)ccc34)nn2)cc1`
8.73 to 9.16 µM

----------
- Test system: Lu1
- assayProtocol: Antiproliferative activity against human Lu1 cells by MTT assay
- Assay type: functional, cell-based
property: IC50

Please provide the recorded IC50 for `Cc1c2ccncc2c(C)c2c1[nH]c1ccccc12` , tested on Lu1.
1700 to 3500 nM

# get_value(readout= IC50, system= Lu1) for `C[C@H]1[C@@H](OCc2cn(-c3cccc(C(=O)N4CCCC4)c3)nn2)O[C@@H]2O[C@@]3(C)CC[C@H]4[C@H](C)CC[C@@H]1[C@@]24OO3`
2500 to 176000 nM

Reported IC50 for Lu1, given `CC1CCN(C(=O)c2ccc(-n3cc(CO[C@H]4O[C@@H]5O[C@@]6(C)CC[C@H]7[C@H](C)CC[C@@H]([C@H]4C)[C@@]57OO6)nn3)cc2)CC1` ?
2500 to 4700 nM

Quick check: IC50 on Lu1, item `C[C@H]1[C@@H](OCc2cn(-c3ccc(C(=O)N4CCN(c5ccccc5)CC4)cc3)nn2)O[C@@H]2O[C@@]3(C)CC[C@H]4[C@H](C)CC[C@@H]1[C@@]24OO3` ?
2500 to 176000 nM

# value lookup — system Lu1, readout IC50, item `CCN1CCN(C(=O)c2ccc(-n3cc(CO[C@H]4O[C@@H]5O[C@@]6(C)CC[C@H]7[C@H](C)CC[C@@H]([C@H]4C)[C@@]57OO6)nn3)cc2)CC1`
2500 to 176000 nM

Under Lu1: IC50 value of `C[C@H]1[C@@H](OCc2cn(-c3cccc(C(=O)N4CCCCC4)c3)nn2)O[C@@H]2O[C@@]3(C)CC[C@H]4[C@H](C)CC[C@@H]1[C@@]24OO3` ?
2500 to 176000 nM

----------
- Test system: HeLa
- assayProtocol: Antiproliferative activity against human HeLa cells
- Type: functional, cell-based
pIC50: −log10 of the molar value.
property: pIC50

Query (molecule): `CCCCCCc1ccc(-c2cn(Cc3cc(=O)oc4cc(O)ccc34)nn2)cc1` ; field requested: pIC50
5.04 to 5.06

----------
- Test system: P388
- assayProtocol: Antiproliferative activity against mouse P388 cells by MTT assay
- Format: functional, cell-based
pIC50: −log10 of the molar value.
property: pIC50

Entry `CCN(CC)C(=O)c1ccc(-n2cc(CO[C@H]3O[C@@H]4O[C@@]5(C)CC[C@H]6[C@H](C)CC[C@@H]([C@H]3C)[C@@]46OO5)nn2)cc1` has what pIC50?
3.75 to 5.60

Requested read-out: pIC50. Entry: `C[C@H]1[C@@H](OCc2cn(-c3ccc(C(=O)N4CCCCC4)cc3)nn2)O[C@@H]2O[C@@]3(C)CC[C@H]4[C@H](C)CC[C@@H]1[C@@]24OO3`
3.75 to 5.60

May I ask what pIC50 has been recorded for `Cc1c2ccncc2c(C)c2c1[nH]c1ccccc12` ?
5.46 to 5.77

I have this compound here, CC1CCCCN1C(=O)c1cccc(-n2cc(CO[C@H]3O[C@@H]4O[C@@]5(C)CC[C@H]6[C@H](C)CC[C@@H]([C@H]3C)[C@@]46OO5)nn2)c1 (some centres undefined) , and I need its recorded pIC50.
3.75 to 5.60

----------
- Test system: A549
- assayProtocol: Antiproliferative activity against human A549 cells assessed as reduction in cell viability after 24 hrs by MTT assay
- Type: functional, cell-based
- conditionNotes: A549, 24 h
Assignment: determine reported IC50 for the given molecules.

Can you share its IC50? I mean this molecule: `CC(=O)c1ccccc1-n1cc(CO[C@H]2O[C@@H]3O[C@@]4(C)CC[C@H]5[C@H](C)CC[C@@H]([C@H]2C)[C@@]35OO4)nn1`
4.06 to 89.9 µM

Which IC50 value belongs to `C[C@H]1[C@@H](O)O[C@@H]2O[C@@]3(C)CC[C@H]4[C@H](C)CC[C@@H]1[C@@]24OO3` ?
42.4 to 52.6 µM

Returns the measured IC50 for the input molecule. Input: `C[C@H]1[C@@H](OCc2cn(-c3ccc(C#N)cc3)nn2)O[C@@H]2O[C@@]3(C)O[C@]24[C@H]1CC[C@@H](C)[C@@H]4C[C@H]3O`
4.06 to 89.9 µM

Item `CC(=O)c1cccc(-n2cc(CO[C@H]3O[C@@H]4O[C@@]5(C)CC[C@H]6[C@H](C)CC[C@@H]([C@H]3C)[C@@]46OO5)nn2)c1` has what recorded IC50?
4.06 to 89.9 µM

Please report the recorded IC50 for `C[C@H]1[C@@H](OCc2cn(-c3ccc(O)cc3)nn2)O[C@@H]2O[C@@]3(C)CC[C@H]4[C@H](C)CC[C@@H]1[C@@]24OO3` .
4.06 to 36.6 µM

Recorded IC50 for `C[C@H]1[C@@H](OCc2cn(-c3ccc([N+](=O)[O-])cc3)nn2)O[C@@H]2O[C@@]3(C)CC[C@H]4[C@H](C)CC[C@@H]1[C@@]24OO3` , please?
4.06 to 89.9 µM

What value of IC50 has been reported for the following molecule? `C[C@@H]1CC[C@H]2[C@@H](C)C(=O)O[C@@H]3O[C@@]4(C)CC[C@@H]1[C@]32OO4`
39 to 68.8 µM

Recorded IC50 for `CC(=O)c1cccc(-n2cc(CO[C@H]3O[C@@H]4O[C@@]5(C)O[C@]46[C@@H](CC[C@@H](C)[C@@H]6C[C@H]5O)[C@H]3C)nn2)c1` , please?
4.06 to 89.9 µM

May I ask what IC50 has been recorded for `COc1cc(-c2ccccc2Cl)cc(-c2nnn(Cc3ccccc3)c2C)n1` ?
42.6 µg/mL

Quick check: IC50 of `COc1ccc(-n2cc(CO[C@H]3O[C@@H]4O[C@@]5(C)CC[C@H]6[C@H](C)CC[C@@H]([C@H]3C)[C@@]46OO5)nn2)cc1` ?
4.06 to 89.9 µM

Which value of IC50 has been reported for `COc1cccc2c1C(=O)c1c(O)c3c(c(O)c1C2=O)C[C@@](O)(C(=O)CO)C[C@@H]3O[C@H]1C[C@H](N)[C@H](O)[C@H](C)O1` in the records?
1.43 to 12 µM

# get_value(readout='IC50', item= `CC(=O)c1ccc(-n2cc(CO[C@H]3O[C@@H]4O[C@@]5(C)O[C@]46[C@@H](CC[C@@H](C)[C@@H]6C[C@H]5O)[C@H]3C)nn2)cc1` )
4.06 to 89.9 µM

----------
- Test system: HCT-116
- assayProtocol: Antiproliferative activity against human HCT116 cells assessed as reduction in cell viability after 48 hrs by SRB assay
- Assay type: functional, cell-based
- conditionNotes: HCT-116, 48 h
pIC50: −log10 of the molar value.
property: pIC50

So what's the measured pIC50 for this one? `CC[C@@]1(O)C(=O)OCc2c1cc1n(c2=O)Cc2cc3ccccc3nc2-1`
6.10 to 7.52

So what does the record say about pIC50 for `O=C(/C=C/c1cn(-c2ccccc2)nc1-c1ccccc1)OCc1cn(-c2ccc([N+](=O)[O-])cc2)nn1` ?
5.02 to 5.75

May I ask what pIC50 has been recorded for `Cc1ccc(-c2nn(-c3ccccc3)cc2/C=C/C(=O)OCc2cn(-c3ccc([N+](=O)[O-])cc3)nn2)cc1` ?
5.02 to 5.75

----------
- Tested on: MCF-10A
- assayProtocol: Cytotoxicity against human MCF10A cells by MTT assay
- Format: cell-based
What IC50 was measured for each of the following?

Notebook entry, MCF-10A assay: IC50 of `CN(C)CCOc1ccc(/C(=C(/CCCl)c2ccccc2)c2ccccc2)cc1` = ?
> 100 µM

Field: IC50 (MCF-10A). Entry: `Cc1c(-n2nnc(-c3nn(-c4nncc5ccccc45)cc3C=O)c2C)cccc1C(F)(F)F`
21.9 to 25.3 µM

Requested read-out IC50, target or system MCF-10A, entry C=CCC1CN2CCC1CC2[C@H](O)c1cc(-c2cn(-c3ccccc3)nn2)nc2ccc(OC)cc12 (stereo partly drawn)
0.53 to 6.4 µM

Missing value: IC50, MCF-10A, entry C=CCC1CN2CCC1CC2[C@@H](c1ccnc2ccc(OC)cc12)n1cc(-c2ccc3ccccc3n2)nn1 (stereo partly drawn) . Fill in?
0.53 to 14.6 µM

Provide the documented IC50 with MCF-10A as the system for C=CCC1CN2CCC1CC2[C@H](O)c1cc(-c2cn(-c3ccc(O)cc3)nn2)nc2ccc(OC)cc12 (stereo partly drawn)
0.53 to 14.6 µM

# get_value(readout= IC50, system= MCF-10A) for `Cc1c(C(F)(F)F)cc(Cl)c(Cl)c1-n1nnc(-c2nn(-c3nncc4ccccc34)cc2C=O)c1C`
21.9 to 25.3 µM

What IC50 appears in the records for this compound with MCF-10A? C=CCC1CN2CCC1CC2[C@H](O)c1ccnc2ccc(-c3cn(-c4ccccc4)nn3)cc12 (stereo partly drawn)
0.53 to 14.6 µM

Give recorded IC50 with MCF-10A for the following compound: `Cc1c(C(F)(F)F)cc(Cl)c(Cl)c1-n1nnc(-c2nn(-c3ccccc3)cc2C=O)c1C`
21.9 to 25.3 µM
